# MEASURED TARGET: MMP-1 (Homo sapiens)
# Construct: purchased Abchem (so in the source)
# Sequence (P03956 100-269 limits assumed): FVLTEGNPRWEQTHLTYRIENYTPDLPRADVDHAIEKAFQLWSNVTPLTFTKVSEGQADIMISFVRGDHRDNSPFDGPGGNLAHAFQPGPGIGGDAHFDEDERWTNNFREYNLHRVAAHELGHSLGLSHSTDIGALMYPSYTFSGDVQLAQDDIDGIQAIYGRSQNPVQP
# METHOD NOTES: MMP1 Inhibitor Screening Assay Kit (ab139443), colorimetric thiopeptide substrate, OD412
# Assay type: biochemical
# SETUP CONDITIONS: remaining enzyme activity; T-23~34 at 5 uM; read-out: MMP-1 (%) (enzyme activity, high concentration)
RECORDED METRIC: remaining activity at 5 µM

[
  {
    "COMPOUND": "CC(C)(C)c1ccc(S(=O)(=O)N2CCCC2C(=O)NO)cc1 (stereo not drawn) [T-28]",
    "remaining activity at 5 µM": "100%"
  },
  {
    "COMPOUND": "O=C(NO)C1CCCCN1S(=O)(=O)c1ccc(C23CC4CC(CC(C4)C2)C3)cc1 (stereo not drawn) [T-23]",
    "remaining activity at 5 µM": "100%"
  }
]

Alright, here's another compound for you.
*Q* So what does the record say about remaining activity at 5 µM for CC(=O)Nc1ccc(S(=O)(=O)N2CCCCC2C(=O)NO)cc1 (stereo not drawn) [T-25] ?
*A* 85.8%
